- TESTED TARGET: HA of B/Hong Kong/330/2001 (victoria) (influenza B virus)
- PROCEDURE TEXT: cell-based or functional assay
Provide the recorded Neutralization (IC50) for the entries that follow.
Record the value in nM, omitting the unit from your answer.

Any idea what its Neutralization (IC50) is? The binder is FBC39 IgG (antibody, V domains shown) VH: EVQLVVSGGGLVKPGGSLRLSCAASGLSFLNAWMSWVRQAPGKGLEWVGRIKSNTDGGTTDYAAPVKGRFSISRDDSKNMLFLHMSSLRTEDTAVYYCATDGPYSDDFRSGYAARYRYFGMDVWGQGTTVTVSS VL: DIQMTQSPSSVSASVGDRVTITCRASQDISTWLAWYQQKPGKAPKLLIYAASSLQSGVPSRFSGSGSGTDFTLTISSLQPEDFATYFCQQANSFPPTFGQGTKLEIK
1

Field request: Neutralization (IC50) | item: FBD94 IgG (antibody, V domains shown) VH: EVQLVESGGGLVQPGRSLRLSCAVSGFIFEDYAINWVRQAPGKGLEWVSIISWDSGRIGYADSVRGRFTISRDNAKNSSFLQMNSLRPEDTAVYYCVKDMLAYYYDGSGIRYNLYGMDVWGQGTTVTVSS VL: EIVLTQSPATLSLSPGERATLSCRASRSITTFLAWYQQKPGQAPRLLIYDASNRATGVPARFSGSGSGTDFTLTINSLEPDDFAIYYCQQRDHWPPIFGQGTRLEIK
0.1

Where do these numbers come from? They come from patent US20180155413A1.
